B1: Caulobacter ParB omega fusion; a variant is named by its letters at X, in order, B8GW30 (parent)
chain: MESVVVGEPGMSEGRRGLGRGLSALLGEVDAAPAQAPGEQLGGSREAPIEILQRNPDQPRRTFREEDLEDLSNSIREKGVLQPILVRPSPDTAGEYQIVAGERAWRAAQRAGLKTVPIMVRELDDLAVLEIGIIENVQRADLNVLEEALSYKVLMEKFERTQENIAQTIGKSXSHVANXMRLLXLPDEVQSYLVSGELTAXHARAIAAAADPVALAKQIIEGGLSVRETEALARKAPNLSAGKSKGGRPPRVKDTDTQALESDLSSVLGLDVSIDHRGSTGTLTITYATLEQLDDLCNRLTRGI

- Variants of: B1
- ASSAY METHOD TEXT: one-hybrid fitness for binding parS DNA (scaled: cognate 1, non-cognate 0); higher = stronger binding
- PROTOCOL CONDITIONS: with parS DNA site
Whole data set: some 81,000 sequences, median “one-hybrid fitness for binding parS DNA” near -0.17, cut for the highest 2% near 0.51. Only a selection was taken, and the highest values are over-represented in it overall.
The following variants are shown together with reported one-hybrid fitness for binding parS DNA values.

{"columns": ["VAR", "one-hybrid fitness for binding parS DNA"],
 "data": [
  ["RTMC", 0.982],
  ["RTMP", "≤ 0.2"],
  ["GHGR", "≤ 0.2"],
  ["EYGF", "≤ 0.2"],
  ["LGVR", "≤ 0.2"],
  ["DLVM", "≤ 0.2"],
  ["RAKS", 0.874],
  ["RHMC", 0.908],
  ["RDPY", "≤ 0.2"],
  ["SEHQ", 0.354],
  ["RSMD", "≤ 0.2"],
  ["RAVS", 0.986],
  ["RAVH", 0.202],
  ["TYDG", "≤ 0.2"],
  ["RTMN", 0.433],
  ["RAVD", "≤ 0.2"],
  ["PLNP", "≤ 0.2"],
  ["QSLF", "≤ 0.2"],
  ["RSMP", "≤ 0.2"],
  ["DESG", "≤ 0.2"],
  ["RHMP", "≤ 0.2"],
  ["HISY", "≤ 0.2"]
]}
